Assay: Half life in rat at 5 mg/kg, iv
Format: ADME, organism-based
Set-up: dose 5 mg/kg, route intravenous
Details: in vivo
experimental.readout: half-life (h)
Give the value in h but do not write h after it.

Exercise: Tell me the measured half-life of COc1ccc([C@]2(O)CC[C@H](N3CC[C@@H](NC(=O)CNC(=O)c4cccc(C(F)(F)F)c4)C3)CC2)cn1.CS(=O)(=O)O , please.
Key: 2.8

* * *

Test: Half life in human administered as qd
Assay type: ADME, organism-based
Settings: in vivo
experimental.readout: half-life (h)
Only the number, expressed in h, is required.

Exercise: Any idea what its half-life is? The compound is COc1ccc([C@]2(O)CC[C@H](N3CC[C@@H](NC(=O)CNC(=O)c4cccc(C(F)(F)F)c4)C3)CC2)cn1.CS(=O)(=O)O
Key: 15

* * *

Biological target: C-C chemokine receptor type 2 (Homo sapiens)
Experiment: Displacement of [125I]MCP1 from CCR2 in human PBMC after 30 mins by gamma counter
Sequence (P41597 whole entry): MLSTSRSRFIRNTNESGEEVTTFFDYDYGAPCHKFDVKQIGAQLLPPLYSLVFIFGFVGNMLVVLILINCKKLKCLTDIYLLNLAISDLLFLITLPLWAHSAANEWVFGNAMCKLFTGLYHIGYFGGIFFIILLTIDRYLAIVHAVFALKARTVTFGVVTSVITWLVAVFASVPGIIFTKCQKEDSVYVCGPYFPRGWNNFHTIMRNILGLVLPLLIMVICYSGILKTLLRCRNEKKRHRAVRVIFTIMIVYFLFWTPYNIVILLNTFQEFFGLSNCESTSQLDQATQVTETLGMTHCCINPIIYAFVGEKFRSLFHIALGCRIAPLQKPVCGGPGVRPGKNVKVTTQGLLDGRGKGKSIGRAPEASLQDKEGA
Entries whose IC50 is below 5 nM take Yes; entries at or above 5 nM take No.

O=C(CNC(=O)c1cccc(C(F)(F)F)c1)N[C@@H]1CCN([C@H]2CC[C@@](O)(c3cnccn3)CC2)C1 = No
O=C(CNC(=O)c1cccc(C(F)(F)F)c1)N[C@@H]1CCN([C@H]2CC[C@@](O)(c3ccccn3)CC2)C1 = Yes
O=C(CNC(=O)c1cccc(C(F)(F)F)c1)N[C@@H]1CCN([C@H]2CC[C@@](O)(c3ccncn3)CC2)C1 = No

Exercise: Item O=C(CNC(=O)c1cccc(C(F)(F)F)c1)N[C@@H]1CCN([C@H]2CC[C@@](O)(c3cccnc3)CC2)C1 : IC50 beneath 5 nM, strictly?
Key: Yes

Exercise: Would you kindly verify if IC50 of Cc1ccc([C@]2(O)CC[C@H](N3CC[C@@H](NC(=O)CNC(=O)c4cccc(C(F)(F)F)c4)C3)CC2)cn1 is strictly less than 5 nM?
Key: Yes

Exercise: Determine whether this compound shows IC50 lower than 5 nM (ties excluded): O=C(CNC(=O)c1cccc(C(F)(F)F)c1)N[C@@H]1CCN([C@H]2CC[C@@](O)(c3ccncc3)CC2)C1
Key: Yes

* * *

Assay: Half life in rat at 10 mg/kg, po
Format: ADME, organism-based
Parameters: dose 10 mg/kg, route oral
Conditions: in vivo
experimental.readout: half-life (h)
Could you give me the number in h? Just the number is fine.

Exercise: // half-life lookup, key: COc1ccc([C@]2(O)CC[C@H](N3CC[C@@H](NC(=O)CNC(=O)c4cccc(C(F)(F)F)c4)C3)CC2)cn1.CS(=O)(=O)O
Key: 2.9

* * *

Target: C-C chemokine receptor type 2 (Homo sapiens)
Assay: Displacement of [125I]MCP1 from CCR2 in human PBMC after 30 mins by gamma counter
Listed here: items and their measured pIC50.
Remember the convention: pIC50 equals -log10 of concentration in molar.

Completed entries (count: 2):
COc1ccc([C@]2(O)CC[C@H](N3CC[C@@H](NC(=O)CNC(=O)c4cccc(C(F)(F)F)c4)C3)CC2)cn1.CS(=O)(=O)O = 8.43
Cc1ccc([C@]2(O)CC[C@H](N3CC[C@@H](NC(=O)CNC(=O)c4cccc(C(F)(F)F)c4)C3)CC2)cc1 = 9.00

Exercise: # get_value(readout= pIC50, system= C-C chemokine receptor type 2 (Homo sapiens)) for CCOc1ccc([C@]2(O)CC[C@H](N3CC[C@@H](NC(=O)CNC(=O)c4cccc(C(F)(F)F)c4)C3)CC2)cn1
Key: 8.49

Exercise: Query for C-C chemokine receptor type 2 (Homo sapiens): what pIC50 does the record show for O=C(CNC(=O)c1cccc(C(F)(F)F)c1)N[C@@H]1CCN([C@H]2CC[C@@](O)(c3ncccn3)CC2)C1 ?
Key: 7.99

Exercise: Test system C-C chemokine receptor type 2 (Homo sapiens); read-out pIC50; what value for O=C(CNC(=O)c1cccc(C(F)(F)F)c1)N[C@@H]1CCN([C@H]2CC[C@@](O)(c3cncnc3)CC2)C1 ?
Key: 7.85

Exercise: For C-C chemokine receptor type 2 (Homo sapiens), provide pIC50 of O=C(CNC(=O)c1cccc(C(F)(F)F)c1)N[C@@H]1CCN([C@H]2CC[C@@](O)(c3cccnn3)CC2)C1 please.
Key: 8.14

* * *

Assay: Cmax in cynomolgus monkey at 30 mg/kg, po
Assay type: ADME, organism-based, Macaca fascicularis
Parameters: dose 30 mg/kg, route oral
Settings: in vivo
experimental.readout: Cmax (nM)
Expressed in nM, but write only the number.

Exercise: Please look up its Cmax: COc1ccc([C@]2(O)CC[C@H](N3CC[C@@H](NC(=O)CNC(=O)c4cccc(C(F)(F)F)c4)C3)CC2)cn1.CS(=O)(=O)O
Key: 2630

* * *

Target: Cytochrome P450 2C9 (Homo sapiens)
Sequence (P11712 whole entry): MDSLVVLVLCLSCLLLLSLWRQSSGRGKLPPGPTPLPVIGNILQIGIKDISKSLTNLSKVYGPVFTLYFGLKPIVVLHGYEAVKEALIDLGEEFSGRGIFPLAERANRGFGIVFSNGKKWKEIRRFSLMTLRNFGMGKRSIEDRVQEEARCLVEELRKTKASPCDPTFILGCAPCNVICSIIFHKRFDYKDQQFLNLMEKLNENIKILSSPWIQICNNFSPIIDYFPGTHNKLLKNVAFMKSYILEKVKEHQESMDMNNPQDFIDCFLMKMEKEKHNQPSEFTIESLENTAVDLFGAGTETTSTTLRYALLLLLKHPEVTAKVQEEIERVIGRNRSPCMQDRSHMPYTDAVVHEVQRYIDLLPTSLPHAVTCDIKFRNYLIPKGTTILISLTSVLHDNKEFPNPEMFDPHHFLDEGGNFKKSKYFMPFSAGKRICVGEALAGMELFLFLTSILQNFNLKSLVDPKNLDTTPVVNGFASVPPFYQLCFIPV
experimental.readout: IC50

Exercise: What measured IC50 is associated with COc1ccc([C@]2(O)CC[C@H](N3CC[C@@H](NC(=O)CNC(=O)c4cccc(C(F)(F)F)c4)C3)CC2)cn1.CS(=O)(=O)O on Cytochrome P450 2C9 (Homo sapiens)?
Key: > 25 µM

* * *

Experiment: Oral bioavailability in chimpanzee at 4 mg/kg
Assay type: ADME, organism-based, Pan troglodytes
Settings: in vivo
experimental.readout: bioavailability (%)
# number only, unit % dropped from output

Exercise: Entry COc1ccc([C@]2(O)CC[C@H](N3CC[C@@H](NC(=O)CNC(=O)c4cccc(C(F)(F)F)c4)C3)CC2)cn1.CS(=O)(=O)O has what bioavailability?
Key: 23

* * *

Assay: AUC in dog at 30 mg/kg, po
Type: ADME, organism-based, Canis lupus familiaris
Parameters: dose 30 mg/kg, route oral
Details: plasma
experimental.readout: AUC (µM·h)
Write down the numeric answer in µM·h and omit the unit.

Exercise: // query AUC value for entry COc1ccc([C@]2(O)CC[C@H](N3CC[C@@H](NC(=O)CNC(=O)c4cccc(C(F)(F)F)c4)C3)CC2)cn1.CS(=O)(=O)O
Key: 33.3

* * *

Target: C-C chemokine receptor type 2 (Homo sapiens)
Assay: Displacement of [125I]MCP1 from CCR2 in human PBMC at 1 uM after 30 mins by gamma counter
Sequence (P41597 whole entry, looked up): as the sequence (P41597 whole entry) above
experimental.readout: inhibition

Use these answered entries as a reference point.
Cc1ccc([C@]2(O)CC[C@@H](N3CC[C@@H](NC(=O)CNC(=O)c4cccc(C(F)(F)F)c4)C3)CC2)cn1 = < 50%
O=C(CNC(=O)c1cccc(C(F)(F)F)c1)N[C@@H]1CCN([C@H]2CC[C@](O)(c3cnccn3)CC2)C1 = < 50%
O=C(CNC(=O)c1cccc(C(F)(F)F)c1)N[C@@H]1CCN([C@H]2CC[C@](O)(c3ccncc3)CC2)C1 (mixture of isomers) = < 50%

Exercise: // query inhibition value for entry COc1ccc([C@]2(O)CC[C@@H](N3CC[C@@H](NC(=O)CNC(=O)c4cccc(C(F)(F)F)c4)C3)CC2)cn1
Key: < 50%

Exercise: Name the reported inhibition value associated with the molecule O=C(CNC(=O)c1cccc(C(F)(F)F)c1)N[C@@H]1CCN([C@H]2CC[C@](O)(c3ccncn3)CC2)C1
Key: < 50%

* * *

Test system: Mus musculus
Assay: Dose normalized AUC in mouse at 10 mg/kg, po
Type: ADME, organism-based
Design: dose 10 mg/kg, route oral
Conditions: in vivo
Label 1.0 when AUC/dose is strictly below 100 nM·h; at or above that, label 0.0.

# example entries with known answers
O=C(CNC(=O)c1cccc(C(F)(F)F)c1)N[C@@H]1CCN([C@H]2CC[C@@](O)(c3ccnnc3)CC2)C1 = 1.0
Cc1ccc([C@]2(O)CC[C@H](N3CC[C@@H](NC(=O)CNC(=O)c4cccc(C(F)(F)F)c4)C3)CC2)cn1 = 0.0
COc1ccc([C@]2(O)CC[C@H](N3CC[C@@H](NC(=O)CNC(=O)c4cccc(C(F)(F)F)c4)C3)CC2)cn1.CS(=O)(=O)O = 0.0
O=C(CNC(=O)c1cccc(C(F)(F)F)c1)N[C@@H]1CCN([C@H]2CC[C@@](O)(c3ccncn3)CC2)C1 = 0.0
O=C(CNC(=O)c1cccc(C(F)(F)F)c1)N[C@@H]1CCN([C@H]2CC[C@@](O)(c3cccnn3)CC2)C1 = 0.0

Exercise: Problem: For the molecule O=C(CNC(=O)c1cccc(C(F)(F)F)c1)N[C@@H]1CCN([C@H]2CC[C@@](O)(c3cccnc3)CC2)C1 , is AUC/dose under 100 nM·h?
Key: 1.0

* * *

Assay: Fraction unbound in human serum at 1 to 10 uM
Assay type: ADME, cell-free
experimental.readout: fraction unbound at up to 10 µM

Exercise: fraction unbound at up to 10 µM for COc1ccc([C@]2(O)CC[C@H](N3CC[C@@H](NC(=O)CNC(=O)c4cccc(C(F)(F)F)c4)C3)CC2)cn1.CS(=O)(=O)O ?
Key: 0.58

Values compiled from ChEMBL document CHEMBL1949557.
